protocol_notes: Half life in C57BL/6 mouse plasma at 2 mg/kg, iv administered as single dose measured upto 24 hrs by LC-MS/MS analysis
Format: ADME, organism-based
For each of the molecules below, state its half-life.
Numbers only; they are read as h.

Item under review: `C[C@H]1Cn2ncc(N3CCCC3=O)c2CN1C(=O)Nc1cc(F)c(F)c(F)c1` . Reported half-life? 1

Item under review: `C[C@H]1Cn2ncc(N3CCOCC3=O)c2CN1C(=O)Nc1ccc(F)c(Cl)c1` . Reported half-life? 2

###

protocol_notes: Clearance in C57BL/6 mouse plasma at 2 mg/kg, iv administered as single dose measured upto 24 hrs by LC-MS/MS analysis
Type: ADME, organism-based
measured_endpoint: clearance (mL/min/kg)
Numbers only; they are read as mL/min/kg.

Item under review: `C[C@H]1Cn2ncc(N3CCOCC3=O)c2CN1C(=O)Nc1ccc(F)c(Cl)c1` . Reported clearance? 10

Item under review: `C[C@H]1Cn2ncc(N3CCCC3=O)c2CN1C(=O)Nc1cc(F)c(F)c(F)c1` . Reported clearance? 13.7
